Test system: SK-MEL-5
test method notes: NCI tumour cell line growth inhibition, 48 h
Calls of active or inactive are those of the source. Rule as the data show it: active = GI50 up to about 1.1 µM and inactive = higher.
In this exercise, the only acceptable responses are active, inactive

These recorded examples may help you get a feel for the data.
molecule: NC(CCCCP(=O)(O)O)C(=O)O (centres undefined)
discrete label: inactive
//
molecule: c1ccc2c(c1)SCCC2NC1=NCCO1 (centres undefined)
discrete label: inactive
//
molecule: O=C1c2cc(I)ccc2N2CCN=C2N1Cc1ccccc1
discrete label: inactive
//
molecule: COc1cc(C2c3cc4c(cc3OC(NNc3ccccc3)C2C)OCO4)cc(OC)c1O (centres undefined)
discrete label: inactive
//
molecule: CC(C)c1cc2c(c(O)c1O)[C@@]1(C(=O)O)CCCC(C)(C)[C@@H]1CC2 [CARNOSIC ACID]
discrete label: inactive
//
molecule: O=C1/C(=C\c2cccc(Oc3ccccc3)c2)S(=O)(=O)C(c2ccccc2)N1c1ccc(Cl)cc1 (centres undefined)
discrete label: inactive
//
molecule: CCOC(=O)Nc1cc2c(c(N)n1)N=C(c1ccc(Cl)cc1Cl)CN2
discrete label: active
//
molecule: COC(=O)/C=C\[C@H]1[C@H](C)N1S(=O)(=O)c1ccc(C)cc1 (some centres undefined)
discrete label: inactive
//
molecule: COC1/C=C/C(C)C(C(C)C(OC)C(C)CCC(=O)C(C)C(C/C=C/N(C)C=O)OC)OC(=O)/C=C/C=C(\C)CC(OC)C(OC)C2=CC(=O)O[C@@H](C(C)C(OC)CC(OC)/C=C/C(C)C(O)C1)[C@H]2O (some centres undefined)
discrete label: active
//
molecule: COC(=O)C1=C(O)C(C(=O)OC)[C@]2(O)[C@H](C(=O)OC)[C@H]1C[C@@H](c1ccc(Cl)cc1Cl)[C@H]2C(=O)OC (some centres undefined)
discrete label: inactive

Prompt line: Lab log entry: Cc1oc2nc(N(C)C)nc(NN)c2c1C — outcome as called in the assay?
Response line: inactive

Prompt line: Lab log entry: Cc1cc(NC(=O)C(=O)Cc2nc3ccccc3s2)ccc1Cl — outcome as called in the assay?
Response line: inactive

Prompt line: Lab log entry: O=C(O)CCCc1ccc2c(c1)C(C(=O)O)CC2 (centres undefined) — outcome as called in the assay?
Response line: inactive

Prompt line: Lab log entry: CC1=C(O)C(=O)C2C(=O)C1C1Cc3ccccc3C21 (centres undefined) — outcome as called in the assay?
Response line: inactive

====

Tested on: OVCAR-3
test method notes: NCI tumour cell line growth inhibition, 48 h
Activity calls are given as the source filed them. No stated cut-off is given here; in the data, active = GI50 up to about 1.1 µM and inactive = higher.
measurement kind: GI50

Prompt line: Give the reported GI50 for c1ccc(CNCCCCNCCCNCc2ccccc2)cc1 (system: OVCAR-3).
Response line: 20 µM (inactive)

Prompt line: Give the reported GI50 for CCN(CC)/C(=C\Cl)Nc1ccccn1.[O-][Cl+3]([O-])([O-])O (system: OVCAR-3).
Response line: > 100 µM (inactive)

Prompt line: Give the reported GI50 for COc1cc2c(c(OC)c1OC)-c1ccc(SC)c(=O)cc1C(CC(=O)Oc1ccc(F)cc1)C2 (stereo not given) (system: OVCAR-3).
Response line: 0.134 µM (active)

Prompt line: Give the reported GI50 for CCC(/C=C/c1ccccc1)=N\NC(=S)N/N=C(/C=C/c1ccccc1)CC (system: OVCAR-3).
Response line: 22.9 µM (inactive)

Prompt line: Give the reported GI50 for CC1=NOC(C)(O)/C1=N/O (stereo not given) (system: OVCAR-3).
Response line: > 100 µM (inactive)

Reference source: ChEMBL document CHEMBL1201862
